Would you kindly list Population Mitotic Cells (%) for each of these compounds?
Test system: Fibroblast
Assay: Multiplex assay against human fibroblast
Type: toxicity, cell-based
Settings: 24 h, 10 µM, compound concentration 10 uM, replicate 2
Hi! Could you send only the number? It should be in %, unit omitted.

Prompt: Any idea what Population Mitotic Cells (%) came out for C=CC(=O)Nc1cc2c(Nc3ccc(F)c(Cl)c3)ncnc2cc1OCCCN1CCOCC1.Cl.Cl [CANERTINIB DIHYDROCHLORIDE] on Fibroblast?
Completion: 50

Prompt: Any idea what Population Mitotic Cells (%) came out for CNc1nc(NCc2ccc(NS(C)(=O)=O)cc2Cl)cc(-c2ccccn2)n1 on Fibroblast?
Completion: 50

Prompt: Any idea what Population Mitotic Cells (%) came out for COc1ncc(-c2ccc3nccc(-c4ccnnc4)c3c2)cc1NS(=O)(=O)c1ccc(F)cc1F on Fibroblast?
Completion: 20

Prompt: Any idea what Population Mitotic Cells (%) came out for CN(C)CC#Cc1ccc(OCCCc2sc(N3CCc4cccc(C(=O)Nc5nc6ccccc6s5)c4C3)nc2C(=O)O)c(F)c1 on Fibroblast?
Completion: 18

Prompt: Any idea what Population Mitotic Cells (%) came out for CN(C)C(=O)/C(C#N)=C/c1ccc(-c2nc3cnc4[nH]ccc4c3n2C2CCCCC2)o1 on Fibroblast?
Completion: 55

Prompt: Any idea what Population Mitotic Cells (%) came out for CC[C@H](C)C(=O)O[C@H]1C[C@@H](C)C=C2C=C[C@H](C)[C@H](CC[C@@H]3C[C@@H](O)CC(=O)O3)[C@H]21 on Fibroblast?
Completion: 71

Prompt: Any idea what Population Mitotic Cells (%) came out for CC(C)NCC(O)COc1ccc(CCOCC2CC2)cc1.Cl (configuration not stated) [BETAXOLOL HYDROCHLORIDE] on Fibroblast?
Completion: 60

====

Tested on: HEK-293T
Test: Multiplex assay against HEK293T;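 also: share of the cells with healthy nuclei that show this phenotype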
Assay type: toxicity, cell-based
Conditions: human, 24 h, 10 µM, compound concentration 10 uM, replicate 1
quantityName: Population Tubulin-Different-Phenotype (%)

Prompt: # lookup: Population Tubulin-Different-Phenotype (%) of Cc1c(-c2ccc(O)cc2)n(Cc2ccc(OCCN3CCCCCC3)cc2)c2ccc(O)cc12
Completion: 92%

Prompt: # lookup: Population Tubulin-Different-Phenotype (%) of CC[C@H](C)C(=O)O[C@H]1C[C@@H](C)C=C2C=C[C@H](C)[C@H](CC[C@@H]3C[C@@H](O)CC(=O)O3)[C@H]21
Completion: 37%

Prompt: # lookup: Population Tubulin-Different-Phenotype (%) of Cc1nc(Nc2n[nH]c3c2CN(C(=O)N[C@H](CN(C)C)c2ccccc2)C3(C)C)c2sccc2n1
Completion: 47%

Prompt: # lookup: Population Tubulin-Different-Phenotype (%) of Cn1cc(-c2[nH]c3cc(NC(=O)[C@H](N)C4CCCCC4)cc4c3c2C=NNC4=O)cn1
Completion: 82%

Prompt: # lookup: Population Tubulin-Different-Phenotype (%) of Cc1[nH]c(/C=C2\C(=O)Nc3ccc(S(=O)(=O)N(C)c4cccc(Cl)c4)cc32)c(C)c1C(=O)N1CCN(C)CC1
Completion: 98%

Prompt: # lookup: Population Tubulin-Different-Phenotype (%) of CN1CCN(c2ccc(OC(F)(F)F)c(Nc3ncc4c(n3)-c3c(c(C(N)=O)nn3CCO)CC4)c2)CC1
Completion: 90%

Prompt: # lookup: Population Tubulin-Different-Phenotype (%) of CN1C(=O)c2sccc2N(C)c2nc(Nc3ccc(S(N)(=O)=O)cc3)ncc21
Completion: 1%

Prompt: # lookup: Population Tubulin-Different-Phenotype (%) of COc1cc2nccc(Oc3ccc(NC(=O)Nc4cc(C)on4)c(Cl)c3)c2cc1OC.O
Completion: 100%

Prompt: # lookup: Population Tubulin-Different-Phenotype (%) of Cc1cc(C)cc(-c2cnc3cc(Cl)c(-c4cccc(O)c4)cc3c2OCCCN)c1
Completion: 66%

Prompt: # lookup: Population Tubulin-Different-Phenotype (%) of CN1CCCC(n2nc(Cc3ccc(Cl)cc3)c3ccccc3c2=O)CC1.Cl (configuration not stated) [AZELASTINE HYDROCHLORIDE]
Completion: 59%

Prompt: # lookup: Population Tubulin-Different-Phenotype (%) of COc1cc(-n2cnc3cc(-c4ccc(Cl)cc4)sc3c2=O)ccc1OCCN1CCCC1
Completion: 0%

Prompt: # lookup: Population Tubulin-Different-Phenotype (%) of CC(C)(O)CNc1ncc(-c2ccnc(Nc3ccnc(Cl)c3)n2)c(CC2CC2)n1
Completion: 100%
